Value source: PubChem BioAssay AID1159580

Assignment: determine reported normalized growth for the given molecules.
Test: chemical genetic growth profiling, strain panel (AID 1159580);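 further: tested at 20 µM; growth read once vehicle control cultures reached saturation at 30 °C; 1 = growth at the plate median or of vehicle wells; lower values mean less growth of the strain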
Conditions: S. cerevisiae deletion strains, growth OD, locus YPR141C, strain kar3, active compounds read low
In all, about 5,500 compounds went through this assay and about 2,000 (36%) were called active. Roughly 18% stayed inconclusive and do not appear here. This is one part of the list.
One number for each entry.

Molecule	normalized growth
CC(C)NCC(O)c1ccc(O)c(O)c1 (stereo not given)	0.992

For every item below, please supply its normalized growth.
1. O=C(O)CCCCC1CCSS1 (stereo not given)
2. Cc1occc(=O)c1/C=C/O
3. CC1(C)C(O)CC(O)C2(C)C1CC(=O)C1(C)C2CCC2(C)C(C(=O)O)OC(=O)C3OC321 (stereo not given)
4. Cc1ccc2cc3c(ccc4ccccc43)c3c2c1CC3
5. NCC(CC(=O)O)c1ccc(Cl)s1 (stereo not given)
6. O=C1CCCC2C3CC(CN12)[C@@H]1CCCCN1C3 (stereo not given in full)

Reply:
0.985
1.02
0.999
0.983
0.982
0.982

Go through the items and report each one's normalized growth.
1. CC(=O)Nc1ccc(S(=O)(=O)Nc2ccc([N+](=O)[O-])cc2)cc1
2. Oc1ccc(Cl)c2cccnc12

Reply:
1
0.0792

Go through the items and report each one's normalized growth.
1. C/C=C/c1ccc2c(c1)OCO2
2. COC(C)(C)CCC[C@H](C)C/C=C/C(C)=C/C(=O)OC(C)C
3. c1ccc2c(c1)cc1ccc3cccc4ccc2c1c34
4. CCC[C@H]1CC2=C(C[C@@H](CC)CC3=C1C(=O)OC3=O)C(=O)OC2=O

Reply:
[1.01, 1.03, 1, 0.896]

Each molecule below has a reported value. Please supply its normalized growth.
1. COc1c2c(cc3c1OCO3)CCN(C)C2
2. O=C1O[C@H](C(O)CO)C(O)=C1O (stereo not given in full)

Reply:
1. 0.991
2. 0.973

* * *

Assignment: determine reported normalized growth for the given compounds.
Assay: chemical genetic growth profiling, strain panel (AID 1159580);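 further: tested at 20 µM; growth read once vehicle control cultures reached saturation at 30 °C; 1 = growth at the plate median or of vehicle wells; lower values mean less growth of the strain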
Conditions: S. cerevisiae deletion strains, growth OD, locus YML032C, strain rad52, active compounds read low
In all, about 5,500 compounds went through this assay and about 2,000 (36%) were called active. Roughly 18% stayed inconclusive and do not appear here. The list shows a part of the results.
Numbers only.

Consider the worked cases shown below.
Compound	Measurement kind	Assay value
CC(=O)c1c(O)c(C)c(O)c2c1OC1=CC(=O)C(C(C)=O)C(=O)C12C (centres undefined)	normalized growth	0.953
CC(=O)O[C@@H]1CC2C(C)(C)C=CC(=O)[C@]2(C)C2CC[C@@]3(C)[C@H](c4ccoc4)OC(=O)C4OC43[C@@]21C (some centres undefined)	normalized growth	1
N[C@@H](Cc1ccc(O)c(O)c1)C(=O)O	normalized growth	0.991
O=C(O)c1ccccc1Nc1cccc(C(F)(F)F)c1	normalized growth	0.933
CCCCC1=NC2(CCCC2)C(=O)N1Cc1ccc(-c2ccccc2-c2nn[nH]n2)cc1	normalized growth	1.02

Report normalized growth for every entry below.
1. CC(C)NCC(O)c1ccc2ccccc2c1 (centres undefined)
2. C=C(CC)C(=O)c1ccc(OCC(=O)O)c(Cl)c1Cl
3. COC(=O)[C@]1(C)CC[C@]2(C)CC[C@]3(C)C4=CCc5c(cc(O)c(O)c5C)[C@]4(C)CC[C@@]3(C)C2C1 (some centres undefined)
4. O=C(O)CCC(=O)C(=O)O

Reply:
[1.01, 0.962, 1.01, 0.995]

# return normalized growth for each item in the list
1. C[C@H]1[C@H]2CCC3C4CC=C5C[C@@H](N(C)C)CC[C@]5(C)C4CC[C@@]32CN1C (some centres undefined)
2. CC1(C)C(=O)C=CC2(C)C3CCC4(C)C(c5ccoc5)CC5OC54C3C(O)CC12 (centres undefined)
3. C[C@H](N)[C@H](O)c1ccc(O)c(O)c1
4. CC(=O)Nc1cc([As](=O)(O)O)ccc1O
5. CC(C)NCC(O)c1ccc(O)c(O)c1 (centres undefined)
6. COc1ccccc1OCCNCC(O)COc1cccc2[nH]c3ccccc3c12 (centres undefined)
7. CC(=O)O[C@@H]1CC2C(C)(C)C(=O)CC[C@]2(C)C2CC[C@]3(C)C(=CC(=O)O[C@H]3c3ccoc3)[C@@]21C (some centres undefined)
8. Cc1occc(=O)c1O

Reply:
0.94
1
0.988
1.03
0.989
1.02
0.982
1.01

Would you be so kind as to report normalized growth for each listed record?
1. CN[C@H](CC(=O)O)C(=O)O
2. CC1(C)CC2C1(O)CCC1(C)C=CC(O)C21CO (centres undefined)
3. NCCCC[C@H](N[C@@H](CCc1ccccc1)C(=O)O)C(=O)N1CCC[C@H]1C(=O)O
4. CC1(C)C(O)CC(O)C2(C)C1CC(O)C1(C)C2CCC2(C)C(c3ccoc3)CC3OC321 (centres undefined)
5. CC(=O)Nc1ccc(S(=O)(=O)Nc2ccc([N+](=O)[O-])cc2)cc1
6. CC(C)N(C(=O)SCC(Cl)=C(Cl)Cl)C(C)C
7. CNC[C@@H](O)c1ccc(O)c(O)c1

Reply:
[0.964, 1.09, 0.999, 1.01, 0.987, 1, 0.997]

Lab note: each compound below needs its normalized growth filled in.
1. C1CNCCN1
2. CC(=O)OCC1(C)CCC2(C)CCC3(C)C4=CCc5c(cc(OC(C)=O)c(OC(C)=O)c5C)C4(C)CCC3(C)C2C1 (centres undefined)
3. CC1(C)C(O)CC(O)C2(C)C1CC(=O)C1(C)C2CCC2(C)C(C(=O)O)OC(=O)C3OC321 (centres undefined)
4. CC1(C)C(=O)C=C[C@@]2(C)C1=C(O)C(=O)[C@]1(C)C2CC[C@@]2(C)[C@H](c3ccoc3)C[C@H]3O[C@]321 (some centres undefined)
5. Oc1c(I)cc(I)c2cccnc12
6. CC(C)(C)NCC(O)c1ccccc1Cl (centres undefined)
7. CC(=O)OC1CC(OC(C)=O)C2(C)C(CC(OC(C)=O)C3(C)C2CCC2(C)C(c4ccoc4)CC4OC423)C1(C)C (centres undefined)

Reply:
1: 0.989; 2: 1; 3: 1.01; 4: 0.811; 5: 0.115; 6: 1.02; 7: 1.01
